Target: ER (Homo sapiens (Human))
Sequence (P03372 whole entry): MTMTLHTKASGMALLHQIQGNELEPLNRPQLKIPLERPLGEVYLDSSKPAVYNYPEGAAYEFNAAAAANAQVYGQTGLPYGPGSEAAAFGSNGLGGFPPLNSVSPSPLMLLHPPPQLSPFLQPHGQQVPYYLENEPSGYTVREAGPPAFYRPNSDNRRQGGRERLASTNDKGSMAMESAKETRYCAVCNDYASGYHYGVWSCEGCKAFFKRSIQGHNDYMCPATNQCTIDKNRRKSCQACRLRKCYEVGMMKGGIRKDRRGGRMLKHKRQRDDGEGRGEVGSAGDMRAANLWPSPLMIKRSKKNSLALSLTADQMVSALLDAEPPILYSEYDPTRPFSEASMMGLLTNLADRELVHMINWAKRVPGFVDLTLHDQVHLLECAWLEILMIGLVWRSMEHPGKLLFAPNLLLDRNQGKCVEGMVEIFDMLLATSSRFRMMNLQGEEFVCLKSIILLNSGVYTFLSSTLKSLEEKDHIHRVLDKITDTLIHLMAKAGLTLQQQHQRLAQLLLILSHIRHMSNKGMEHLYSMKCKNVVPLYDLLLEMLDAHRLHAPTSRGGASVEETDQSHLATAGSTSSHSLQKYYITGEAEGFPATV
Assay: Western blot analysis (Compounds B1-B278)
Format: cell-based
Settings: ER degradation by traditional Western blot; DC50 classes
measure name: Traditional Western Degradation Potency

Recorded results for 10 molecules are shown here.
molecule	Traditional Western Degradation Potency
C[C@@H]1Cc2c([nH]c3ccccc23)[C@H](c2c(F)cc(C(=O)N3CCC4(CCC(CN5Cc6cc7c(cc6C5)C(=O)N(C5CCC(=O)NC5=O)C7=O)CC4)CC3)cc2F)N1CC(F)F (stereo partly shown)	C (“C”: >100 nM)
C[C@@H]1Cc2c([nH]c3ccccc23)[C@@H](c2cnc(N3CC4(CCC(CN5Cc6cc7c(cc6C5)C(=O)N(C5CCC(=O)NC5=O)C7=O)CC4)C3)nc2)N1CC(F)F (stereo partly shown)	C (“C”: >100 nM)
C[C@@H]1Cc2c([nH]c3ccccc23)[C@@H](c2c(F)cc(N3CCC4(CCN(CC(=O)N5Cc6cc7c(cc6C5)C(=O)N(C5CCC(=O)NC5=O)C7)CC4)C3)cc2F)N1CC(F)F (stereo partly shown)	A (“A”: <10 nM)
C[C@@H]1Cc2c([nH]c3ccccc23)[C@@H](c2c(F)cc(C3CCC(C(=O)N4CC(N5Cc6cc7c(cc6C5)C(=O)N(C5CCC(=O)NC5=O)C7=O)C4)CC3)cc2F)N1CC(F)F (stereo partly shown)	C (“C”: >100 nM)
C[C@@H]1Cc2c([nH]c3ccccc23)[C@@H](c2c(F)cc(N3CCC(CN4CCCC(N5Cc6cc7c(cc6C5)C(=O)N(C5CCC(=O)NC5=O)C7=O)CC4)CC3)cc2F)N1CC(F)F (stereo partly shown)	A (“A”: <10 nM)
C[C@@H]1Cc2c([nH]c3ccccc23)[C@@H](c2c(F)cc(N3CCC4(CCN(CC5Cc6cc7c(cc6C5)C(=O)N(C5CCC(=O)NC5=O)C7=O)CC4)CC3)cc2F)N1CC(F)(F)F (stereo partly shown)	C (“C”: >100 nM)
C[C@@H]1Cc2c([nH]c3ccccc23)[C@@H](c2ccc(N3CCC4(CCN(CC(=O)N5Cc6cc7c(cc6C5)C(=O)N(C5CCC(=O)NC5=O)C7=O)CC4)CC3)cn2)N1CC(F)F (stereo partly shown)	C (“C”: >100 nM)
C[C@@H]1Cc2c([nH]c3ccccc23)[C@@H](c2c(F)cc(N3CCCC4(CCN(C(=O)CN5Cc6cc7c(cc6C5)C(=O)N(C5CCC(=O)NC5=O)C7=O)C4)C3)cc2F)N1CC(F)F (stereo partly shown)	C (“C”: >100 nM)
C[C@@H]1Cc2c([nH]c3ccccc23)[C@@H](c2c(F)cc(N3CCCC4(CN(C(=O)CN5Cc6cc7c(cc6C5)C(=O)N(C5CCC(=O)NC5=O)C7)C4)C3)cc2F)N1CC(F)F (stereo partly shown)	B (“B”: 10-100 nM)
C[C@@H]1Cc2c([nH]c3ccccc23)[C@@H](c2c(F)cc(N3CCC4(CCN(C(=O)CN5Cc6cc7c(cc6C5)C(=O)N(C5CCC(=O)NC5=O)C7=O)CC4)C3)cc2F)N1CC(F)F (stereo partly shown)	A (“A”: <10 nM)

Quick batch: Traditional Western Degradation Potency for everything below.
1. C[C@@H]1Cc2c([nH]c3ccccc23)[C@@H](c2c(F)cc(C3CCN(C(=O)[C@H]4CC[C@@H](N5Cc6cc7c(cc6C5)C(=O)N(C5CCC(=O)NC5=O)C7=O)CC4)CC3)cc2F)N1CC(F)F (stereo partly shown)
2. C[C@H]1Cc2c([nH]c3ccccc23)[C@H](c2c(F)cc(N3CC4(CCN(C(=O)CN5Cc6cc7c(cc6C5)C(=O)N(C5CCC(=O)NC5=O)C7=O)CC4)C3)cc2F)N1CC(F)F (stereo partly shown)
3. C[C@@H]1Cc2c([nH]c3ccccc23)[C@@H](c2c(F)cc(N3CC(CC(=O)N4CC(N5Cc6cc7c(cc6C5)C(=O)N(C5CCC(=O)NC5=O)C7)C4)C3)cc2F)N1CC(F)F (stereo partly shown) [Compound B71]
4. C[C@@H]1Cc2c([nH]c3ccccc23)[C@@H](c2c(F)cc(N3CCC(CN4CC5(CC(N6Cc7cc8c(cc7C6)C(=O)N(C6CCC(=O)NC6=O)C8=O)C5)C4)CC3)cc2F)N1CC(F)F (stereo partly shown)
5. C[C@@H]1Cc2c([nH]c3ccccc23)[C@@H](c2c(F)cc(N3CCC(C(=O)N4CC(N5Cc6cc7c(cc6C5)C(=O)N(C5CCC(=O)NC5=O)C7=O)C4)CC3)cc2F)N1CC(F)F (stereo partly shown)
6. C[C@@H]1Cc2c([nH]c3ccccc23)[C@@H](c2c(F)cc(N3CCC4(CC3)CN(C(=O)CN3Cc5cc6c(cc5C3)C(=O)N(C3CCC(=O)NC3=O)C6=O)C4)cc2F)N1CC(F)(F)F (stereo partly shown)
7. C[C@@H]1Cc2c([nH]c3ccccc23)[C@@H](c2ccc(N3CCC4(CCN(C(=O)CN5Cc6cc7c(cc6C5)C(=O)N(C5CCC(=O)NC5=O)C7=O)CC4)CC3)cn2)N1CC(F)F (stereo partly shown)

Solution:
1. B (“B”: 10-100 nM)
2. A (“A”: <10 nM)
3. B (“B”: 10-100 nM)
4. A (“A”: <10 nM)
5. C (“C”: >100 nM)
6. B (“B”: 10-100 nM)
7. C (“C”: >100 nM)

Quick batch: Traditional Western Degradation Potency for everything below.
1. C[C@@H]1Cc2c([nH]c3ccccc23)[C@@H](c2cnc(N3CCC4(CC3)CC(CN3Cc5cc6c(cc5C3)C(=O)N(C3CCC(=O)NC3=O)C6=O)C4)nc2)N1CC(F)F (stereo partly shown)
2. C[C@@H]1Cc2c([nH]c3ccccc23)[C@@H](c2c(F)cc(C3CCC(C(=O)N4CCC(N5Cc6cc7c(cc6C5)C(=O)N(C5CCC(=O)NC5=O)C7=O)CC4)CC3)cc2F)N1CC(F)(F)CO (stereo partly shown)

Solution:
1: B (“B”: 10-100 nM); 2: C (“C”: >100 nM)
